- Test: self-splicing fitness, log relative to wild type (ln ratio); higher = more splicing; Tetrahymena group I intron in knt gene, E. coli kanamycin selection, DiMSum; sequences stand for … in CUCUCU…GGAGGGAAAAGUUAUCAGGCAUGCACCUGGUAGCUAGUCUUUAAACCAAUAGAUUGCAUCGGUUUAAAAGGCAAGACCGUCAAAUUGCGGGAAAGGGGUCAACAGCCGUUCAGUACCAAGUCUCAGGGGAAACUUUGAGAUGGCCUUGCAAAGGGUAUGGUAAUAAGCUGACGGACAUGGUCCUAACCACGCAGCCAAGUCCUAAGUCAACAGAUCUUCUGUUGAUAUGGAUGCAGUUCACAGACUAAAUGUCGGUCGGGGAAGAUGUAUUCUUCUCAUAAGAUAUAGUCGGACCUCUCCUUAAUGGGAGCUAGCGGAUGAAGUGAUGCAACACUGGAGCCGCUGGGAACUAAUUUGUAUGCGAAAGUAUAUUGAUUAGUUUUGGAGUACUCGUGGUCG;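 further: selection with 25 µg/mL kanamycin versus none on LB agar overnight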
- Condition parameters: 30 °C
Observation type: self-splicing fitness (ln)
Field format: numeric only.

# count of solved cases: 3
{"columns": ["Biopolymer sequence", "self-splicing fitness (ln)"],
 "data": [
  ["AAACAGCAAUAUUACGCUCC", -1.21],
  ["AGCGAGCAAUAUUACGAGCA", -0.722],
  ["CGCGAGCAAUAUUACGGGGG", -3.45]
]}

Notebook: AUGUAGCAAUAUUACGUCUU , self-splicing fitness (ln) read as -1.62

----------
- Test: self-splicing fitness, log relative to wild type (ln ratio); higher = more splicing; Tetrahymena group I intron in knt gene, E. coli kanamycin selection, DiMSum; sequences stand for … in CUCUCU…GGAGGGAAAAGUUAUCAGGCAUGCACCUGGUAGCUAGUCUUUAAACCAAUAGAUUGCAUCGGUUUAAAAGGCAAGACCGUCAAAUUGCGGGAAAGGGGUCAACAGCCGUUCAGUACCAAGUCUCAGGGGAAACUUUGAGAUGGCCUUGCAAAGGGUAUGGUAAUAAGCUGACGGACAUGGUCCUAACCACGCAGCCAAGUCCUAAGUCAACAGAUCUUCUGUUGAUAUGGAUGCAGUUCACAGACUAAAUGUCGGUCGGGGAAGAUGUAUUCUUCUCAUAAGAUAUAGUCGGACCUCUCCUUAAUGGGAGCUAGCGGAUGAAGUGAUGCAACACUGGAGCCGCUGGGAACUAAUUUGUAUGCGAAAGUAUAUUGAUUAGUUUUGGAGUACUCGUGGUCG
- Condition parameters: 30 °C
Observation type: self-splicing fitness (ln)
Field format: numeric only.

{"columns": ["Biopolymer sequence", "Value observed"],
 "data": [
  ["AUAGAGCAAUAUUACGGCUG", -1.13],
  ["CGUAAGCAAUAUUACGGCUU", -3.69],
  ["AAGUAGCAAUAUUACGGCAU", -0.18],
  ["UCGAAGCAAUAUUACGUAGU", -2.53],
  ["UCUAAGCAAUAUUACGUCGA", -0.33]
]}

Notebook: CUAAAGCAAUAUUACGUUUC , self-splicing fitness (ln) read as -3.78

Notebook: AUGGAGCAAUAUUACGGUUU , self-splicing fitness (ln) read as -2.56

Notebook: GCGCAGCAAUAUUACGUCUA , self-splicing fitness (ln) read as -0.763

----------
- Test: self-splicing fitness, log relative to wild type (ln ratio); higher = more splicing; Tetrahymena group I intron in knt gene, E. coli kanamycin selection, DiMSum; sequences stand for … in CUCUCU…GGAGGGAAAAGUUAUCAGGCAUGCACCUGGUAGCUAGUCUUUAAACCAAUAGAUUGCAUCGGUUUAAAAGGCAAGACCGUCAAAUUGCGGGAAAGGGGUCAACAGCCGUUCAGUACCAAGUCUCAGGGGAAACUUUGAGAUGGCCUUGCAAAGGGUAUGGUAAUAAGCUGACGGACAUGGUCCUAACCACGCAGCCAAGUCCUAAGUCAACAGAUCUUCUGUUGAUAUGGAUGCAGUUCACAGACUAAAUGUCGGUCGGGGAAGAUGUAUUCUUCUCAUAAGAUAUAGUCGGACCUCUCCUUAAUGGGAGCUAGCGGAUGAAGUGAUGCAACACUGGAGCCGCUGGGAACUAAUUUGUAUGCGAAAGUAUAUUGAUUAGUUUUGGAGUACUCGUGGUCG
- Condition parameters: 30 °C
# self-splicing fitness (ln) annotations
Field format: numeric only.

Notebook: AGAGAGCAAUAUUACGGUGC , self-splicing fitness (ln) read as -4.34

Notebook: AAUAAGCAAUAUUACGACAA , self-splicing fitness (ln) read as -0.398

Notebook: GACUAGCAAUAUUACGUCCU , self-splicing fitness (ln) read as -1.15

Notebook: UACAAGCAAUAUUACGCUCC , self-splicing fitness (ln) read as -2.38

Notebook: UACCAGCAAUAUUACGAAGA , self-splicing fitness (ln) read as -1.63

Notebook: AAUUAGCAAUAUUACGUUAA , self-splicing fitness (ln) read as -1.19

Notebook: UAUUAGCAAUAUUACGAACA , self-splicing fitness (ln) read as -0.315

Notebook: UCAUAGCAAUAUUACGUAAC , self-splicing fitness (ln) read as -3.57

Notebook: CGCCAGCAAUAUUACGAGCG , self-splicing fitness (ln) read as -2.66

Notebook: CAGAAGCAAUAUUACGUGGC , self-splicing fitness (ln) read as -3.7

Notebook: ACGUAGCAAUAUUACGAUAU , self-splicing fitness (ln) read as -1.39

Notebook: GUACAGCAAUAUUACGCGCA , self-splicing fitness (ln) read as -1.07

Notebook: UCGCAGCAAUAUUACGAAGG , self-splicing fitness (ln) read as -1.85

Notebook: UGUAAGCAAUAUUACGCUGU , self-splicing fitness (ln) read as -3.43

Notebook: CGCGAGCAAUAUUACGACCU , self-splicing fitness (ln) read as -0.582

Notebook: AUCAAGCAAUAUUACGAGAU , self-splicing fitness (ln) read as -2.81

----------
- Test: self-splicing fitness, log relative to wild type (ln ratio); higher = more splicing; Tetrahymena group I intron in knt gene, E. coli kanamycin selection, DiMSum; sequences stand for … in CUCUCU…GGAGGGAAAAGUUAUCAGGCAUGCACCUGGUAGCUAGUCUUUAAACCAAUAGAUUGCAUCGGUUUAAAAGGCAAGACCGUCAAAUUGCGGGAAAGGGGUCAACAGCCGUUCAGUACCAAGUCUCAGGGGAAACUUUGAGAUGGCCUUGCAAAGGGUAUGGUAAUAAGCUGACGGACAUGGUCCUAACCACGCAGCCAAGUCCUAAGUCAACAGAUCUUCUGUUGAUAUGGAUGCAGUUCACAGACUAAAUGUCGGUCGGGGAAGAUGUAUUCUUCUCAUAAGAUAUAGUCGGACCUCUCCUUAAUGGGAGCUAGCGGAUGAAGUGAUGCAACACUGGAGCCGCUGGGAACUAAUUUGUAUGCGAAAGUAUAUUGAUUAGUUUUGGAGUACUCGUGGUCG
- Condition parameters: 30 °C
Kind request: treat -2 as inclusive, so self-splicing fitness (ln) at -2 or higher is MET, anything lower is NOT MET.

See these solved cases before continuing.
{"columns": ["Biopolymer sequence", "Label value"],
 "data": [
  ["UAGGAGCAAUAUUACGCUGG", "NOT MET"],
  ["CCUCAGCAAUAUUACGGCAG", "NOT MET"],
  ["ACAAAGCAAUAUUACGAAAG", "MET"],
  ["GCAAAGCAAUAUUACGGGGU", "NOT MET"],
  ["AAUAAGCAAUAUUACGAACA", "MET"]
]}

Task: # bool: self-splicing fitness (ln) of CAGGAGCAAUAUUACGGUAG >= -2
Result: MET

Task: # bool: self-splicing fitness (ln) of AGGGAGCAAUAUUACGUUUG >= -2
Result: NOT MET

Task: # bool: self-splicing fitness (ln) of GAUAAGCAAUAUUACGUACA >= -2
Result: MET

----------
- Test: self-splicing fitness, log relative to wild type (ln ratio); higher = more splicing; Tetrahymena group I intron in knt gene, E. coli kanamycin selection, DiMSum; sequences stand for … in CUCUCU…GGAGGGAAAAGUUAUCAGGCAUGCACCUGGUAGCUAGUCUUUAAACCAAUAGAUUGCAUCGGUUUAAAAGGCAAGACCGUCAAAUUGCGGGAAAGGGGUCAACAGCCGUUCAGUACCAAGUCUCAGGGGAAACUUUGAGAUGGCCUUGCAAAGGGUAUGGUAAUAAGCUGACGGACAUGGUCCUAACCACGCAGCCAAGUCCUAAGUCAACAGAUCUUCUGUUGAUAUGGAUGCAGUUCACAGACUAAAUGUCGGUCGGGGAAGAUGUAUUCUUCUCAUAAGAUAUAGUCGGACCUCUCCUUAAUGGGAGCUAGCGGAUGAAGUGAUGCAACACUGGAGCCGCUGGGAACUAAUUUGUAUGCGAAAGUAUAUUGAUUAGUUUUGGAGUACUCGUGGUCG
- Condition parameters: 30 °C
Kind request: treat -1 as inclusive, so self-splicing fitness (ln) at -1 or higher is condition met, anything lower is condition not met.

See these solved cases before continuing.
{"columns": ["Biopolymer sequence", "Label value"],
 "data": [
  ["GUCAAGCAAUAUUACGCUGG", "condition not met"],
  ["CGUAAGCAAUAUUACGGCGG", "condition met"],
  ["CCACAGCAAUAUUACGGAAC", "condition not met"],
  ["AAACAGCAAUAUUACGGUCU", "condition met"],
  ["CGGCAGCAAUAUUACGACUA", "condition met"],
  ["UCUCAGCAAUAUUACGGUUC", "condition not met"],
  ["UCCUAGCAAUAUUACGGAGC", "condition not met"],
  ["ACUCAGCAAUAUUACGAGCC", "condition not met"],
  ["UUCGAGCAAUAUUACGAUUC", "condition not met"],
  ["UCUCAGCAAUAUUACGCCGC", "condition not met"]
]}

Next:
Task: # bool: self-splicing fitness (ln) of UAAGAGCAAUAUUACGCCCU >= -1
Result: condition not met
